Value source: patent US11066369B2

# study system: delF508-CFTR (Homo sapiens, UniProt P13569, DEL508-508)
# Construct: functional activity of the CFTR channel (Chloride ion transport) in patient derived primary human bronchial epithelial cells
# Sequence (P13569 with tags, fused parts or gaps DEL508-508): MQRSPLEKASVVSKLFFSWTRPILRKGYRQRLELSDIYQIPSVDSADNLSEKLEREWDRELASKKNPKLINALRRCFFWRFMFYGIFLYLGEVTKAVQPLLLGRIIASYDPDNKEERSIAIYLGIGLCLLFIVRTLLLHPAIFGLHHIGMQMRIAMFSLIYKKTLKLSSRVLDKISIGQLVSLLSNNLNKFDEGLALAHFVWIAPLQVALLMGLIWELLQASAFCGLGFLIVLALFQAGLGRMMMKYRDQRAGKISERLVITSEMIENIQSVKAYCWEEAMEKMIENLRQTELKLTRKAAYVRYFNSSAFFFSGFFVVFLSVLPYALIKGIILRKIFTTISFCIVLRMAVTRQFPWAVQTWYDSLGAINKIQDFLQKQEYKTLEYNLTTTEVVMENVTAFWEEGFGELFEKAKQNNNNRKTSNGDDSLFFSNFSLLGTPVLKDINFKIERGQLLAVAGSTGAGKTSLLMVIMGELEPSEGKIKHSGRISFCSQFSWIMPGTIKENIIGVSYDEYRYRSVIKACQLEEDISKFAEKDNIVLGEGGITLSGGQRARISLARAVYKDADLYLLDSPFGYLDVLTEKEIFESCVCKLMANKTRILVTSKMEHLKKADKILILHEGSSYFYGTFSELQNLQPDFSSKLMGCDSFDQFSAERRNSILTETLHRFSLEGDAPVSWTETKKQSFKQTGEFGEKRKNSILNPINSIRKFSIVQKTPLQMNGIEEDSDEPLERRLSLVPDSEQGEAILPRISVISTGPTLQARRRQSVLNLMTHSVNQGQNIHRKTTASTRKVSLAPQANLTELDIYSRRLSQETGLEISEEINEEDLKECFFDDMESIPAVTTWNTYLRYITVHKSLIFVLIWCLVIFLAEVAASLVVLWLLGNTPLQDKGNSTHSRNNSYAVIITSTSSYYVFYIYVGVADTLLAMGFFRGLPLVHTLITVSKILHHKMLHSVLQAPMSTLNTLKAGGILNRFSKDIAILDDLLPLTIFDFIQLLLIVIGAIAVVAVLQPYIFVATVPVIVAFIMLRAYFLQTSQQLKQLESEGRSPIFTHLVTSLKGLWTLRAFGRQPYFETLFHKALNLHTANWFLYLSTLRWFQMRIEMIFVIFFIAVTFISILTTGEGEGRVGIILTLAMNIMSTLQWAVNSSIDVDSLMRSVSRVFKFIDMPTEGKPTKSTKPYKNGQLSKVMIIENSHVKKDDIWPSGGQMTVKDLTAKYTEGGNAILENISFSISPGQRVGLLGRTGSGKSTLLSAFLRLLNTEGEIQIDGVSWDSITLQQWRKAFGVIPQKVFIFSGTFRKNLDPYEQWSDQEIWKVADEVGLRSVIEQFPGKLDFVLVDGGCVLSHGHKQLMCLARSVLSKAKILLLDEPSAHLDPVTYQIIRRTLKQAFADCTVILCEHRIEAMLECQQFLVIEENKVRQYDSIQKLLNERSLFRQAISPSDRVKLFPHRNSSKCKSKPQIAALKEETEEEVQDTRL
# experiment: Measurement of delF508-CFTR functional activity in primary human bronchial epithelial cells (HBECs) using Multi-Transepithelial Clamp Circuit (MTECC-24) assay
# condition info: primary CF HBECs; test compound added 24h before assay, in the presence of potentiator; mean of at least two replicates; read-out: MTECC24 CFHBEC- EC50
Structures can show the parent of a compound that is named as a salt.
parameter measured: EC50 (nM)

compound	EC50, nM
Cc1ccc(F)cc1-c1nc(NS(=O)(=O)c2cccc(O[C@@H]3COC[C@@H]3O)n2)ccc1Cl	12.1
Cc1cccc(C)c1-c1nc(NS(=O)(=O)c2cccc(N3CCNCC3=O)n2)ccc1Cl [Example 192, hydrochloride]	16.1
Cc1cccc(C)c1-c1nc(NS(=O)(=O)c2cccc(N3CC(C)(O)C3)n2)ccc1Cl	2.2
Cc1ccccc1-c1nc(NS(=O)(=O)c2cccc(N3CC4CCC(C3)N4)n2)ccc1C(F)(F)F [Example 181, Hydrochloride]	39.8

I: Cc1cccc(C)c1-c1cc(C(F)(F)F)cc(NS(=O)(=O)c2cccc(N)n2)n1
II: Cc1ccc(F)cc1-c1nc(NS(=O)(=O)c2ccc(N)nc2)ccc1Cl
III: CCOC(=O)C1(C)CCN(c2cccc(S(=O)(=O)Nc3ccc(C(F)(F)F)c(-c4ccccc4C)n3)n2)CC1
IV: CC1(O)CN(c2cccc(S(=O)(=O)Nc3ccc(C(F)(F)F)c(-c4ccccc4Cl)n3)n2)C1
Rank entries according to their EC50, from the largest number down. Your task in answering is to list the labels in the requested order.
II, IV, I, III
(II: 46 nM, IV: 7 nM, I: 3 nM, III: 1.9 nM)

---

# study system: delF508-CFTR (Homo sapiens, UniProt P13569, DEL508-508)
# Construct: functional activity of the CFTR channel (Chloride ion transport) in patient derived primary human bronchial epithelial cells; host or cells: patient-derived primary human bronchial epithelial cells (delF508-CFTR)
# experiment: Measurement of delF508-CFTR functional activity in primary human bronchial epithelial cells (HBECs) using Multi-Transepithelial Clamp Circuit (MTECC-24) assay
# Format: cell-based
# condition info: primary CF HBECs; test compound added 24h before assay plus potentiator; relative to reference combination (2 μM corrector + 0.5 μM potentiator)
Where a name gives a salt, the structure may show the parent alone.
parameter measured: MTECC24 CFHBEC- Amax % (%)

I: Cc1ccccc1-c1nc(NS(=O)(=O)c2cccc(N[C@@H]3CCOC[C@@H]3O)n2)ccc1C(F)(F)F (single isomer, unassigned) [Example 276]
II: Cc1ccccc1-c1nc(NS(=O)(=O)c2cccc(N3CC[C@H](N)C3)n2)ccc1C(F)(F)F [Example 120, Hydrochloride]
Response body: label of entry with the larger MTECC24 CFHBEC- Amax %; valid values I , II . The response must carry the label of the picked entry.
I

1: Cc1ccccc1-c1nc(NS(=O)(=O)c2cccc(N3C[C@@H]4C[C@H]3CN4)n2)ccc1C(F)(F)F [Example 203, hydrochloride]
2: CCOC(=O)C1(C)CCN(c2cccc(S(=O)(=O)Nc3ccc(Cl)c(-c4cc(F)ccc4C)n3)n2)CC1
Response body: label of entry with the larger MTECC24 CFHBEC- Amax %; valid values 1 , 2 . The response must carry the label of the picked entry.
1
(1: 80.9%, 2: 52.6%)
